Where these numbers come from: the supplement of paper PMC12855868

B1: library; numbered along this chain (parent)
chain: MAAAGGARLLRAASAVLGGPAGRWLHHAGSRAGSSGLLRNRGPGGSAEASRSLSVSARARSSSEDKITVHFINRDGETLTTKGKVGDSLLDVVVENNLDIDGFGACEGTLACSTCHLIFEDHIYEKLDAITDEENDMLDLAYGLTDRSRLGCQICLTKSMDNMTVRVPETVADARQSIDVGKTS

# Variants of: B1
# Test: scaled log2 fold change in cell abundance, elesclomol vs control (0 = silent mean, 1 = nonsense mean) (scaled log2 ratio); higher = higher viability under elesclomol (loss of FDX1 cuproptosis function);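 also: variant abundance is its share of total variant reads in each endpoint sample, from next-generation sequencing of the integrated ORF PCR-amplified out of genomic DNA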
# Assay conditions: with ABC1 FDX1 KO; elesclomol 5 nM; glucose 10 mM; 14 days
Kindly return true if reported scaled log2 fold change is no lower than 0.2; return false if it is lower.

These recorded examples may help you get a feel for the data.
{"Mutant designation": "E95V", "Cat": "false"}
{"Mutant designation": "D65V", "Cat": "false"}
{"Mutant designation": "G151E", "Cat": "true"}
{"Mutant designation": "P43F", "Cat": "false"}
{"Mutant designation": "A21E", "Cat": "false"}
{"Mutant designation": "H122C", "Cat": "false"}

Determine whether this variant has scaled log2 fold change no lower than 0.2: `I123G`
true

Continue with `I178W`
true
